Data origin: ChEMBL document CHEMBL1125559

Each entry below carries its reported IC50.
# Species: Oryctolagus cuniculus
# Test summary: Concentration required to inhibit PAF (5*10e-8 M) induced platelet aggregation in rabbit platelet rich plasma(PRP) by 50%
# Type: functional, organism-based
Please reply with the bare figure in nM and do not write the unit itself.

State, in one line, measured IC50 of CCCCCCCCCCCCCCCCOc1ccc(CC(=O)Nc2cccc(C[n+]3csc(C)c3)c2)cc1
5300

State, in one line, measured IC50 of CCCCCCCCCCCCCCOc1ccc(CNc2cccc(C[n+]3csc(C)c3)c2)cc1.[Br-]
7100

---

# Species on record: Oryctolagus cuniculus
# Test summary: Concentration required to inhibit PAF (5*10e-8 M) induced platelet aggregation in rabbit platelet rich plasma(PRP) by 50%
# Assay type: functional, organism-based
Quantity measured: IC50 (nM)
Please reply with the bare figure in nM and do not write the unit itself.

For orientation, consider the following solved cases.
• CCCCCCCCCCCCCCOc1c(CN(C(C)=O)c2cccc(C[n+]3csc(C)c3)c2)cccc1OC.[Br-] = 2500
• CCCCCCCCCCCCCCOc1ccc(CC(=O)Nc2cccc(C[n+]3csc(C)c3)c2)cc1.[Br-] = 310

State, in one line, measured IC50 of CCCCCCCCCCCCCCOc1ccc(CNC(=O)c2ccc(C[n+]3csc(C)c3)cc2)cc1.[Br-]
2900
